Here we list compounds with their recorded IC50 when tested on wildtype HIV-1 protease (Human immunodeficiency virus type 1 group M subtype B).
Could you give me the number in nM? Just the number is fine.

Some entries whose results are on file:
COC(=O)N[C@H](C(=O)Nc1ccccc1CC[C@@H]1CN[C@H](C)[C@@H](CSc2nc3ncccc3[nH]2)O1)C(c1ccccc1)c1ccccc1	44.4
C[C@@H]1O[C@H](CCc2c(F)cccc2NC(=O)[C@@H](N)C(c2ccc(F)cc2)c2ccc(F)cc2)CN[C@@H]1COC(=O)NCC(F)(F)F	30
COC(=O)N[C@H](C(=O)Nc1ccccc1CC[C@@H]1CN[C@H](C)[C@@H](CSc2ncccc2C(F)(F)F)O1)C(c1ccccc1)c1ccccc1	43.3

Bench note, wildtype HIV-1 protease (Human immunodeficiency virus type 1 group M subtype B): COC(=O)N[C@H](C(=O)Nc1ccccc1CC[C@@H]1CN[C@H](C)[C@@H](COc2ccc(C#N)cc2)O1)C(c1ccccc1)c1ccccc1 , IC50 reads 222

Let me check: COC(=O)N[C@H](C(=O)Nc1ccccc1CC[C@@H]1CN[C@H](COCc2ccccc2)[C@@H](CO)O1)C(c1ccccc1)c1ccccc1 , system wildtype HIV-1 protease (Human immunodeficiency virus type 1 group M subtype B), measured IC50 is 80

wildtype HIV-1 protease (Human immunodeficiency virus type 1 group M subtype B) data for C[C@H]1O[C@H](CCc2c(F)cccc2NC(=O)[C@@H](N)C(c2ccc(F)cc2)c2ccc(F)cc2)CN[C@@H]1COC(=O)NCc1ccc(F)cc1 [Example 56] ; its IC50: 7

COC(=O)N[C@H](C(=O)Nc1ccccc1CC[C@@H]1CN[C@H](C)[C@@H](CSc2ncnc3c2cnn3C)O1)C(c1ccccc1)c1ccccc1 tested on wildtype HIV-1 protease (Human immunodeficiency virus type 1 group M subtype B) gave IC50: 11.7

Value (IC50, wildtype HIV-1 protease (Human immunodeficiency virus type 1 group M subtype B)) for record C[C@@H]1O[C@H](CCc2c(F)cccc2NC(=O)[C@@H](N)C(c2ccc(F)cc2)c2ccc(F)cc2)CN[C@@H]1COC(=O)N[C@@H](c1ccc(F)cc1)C1CC1 = 17

Here COC(=O)N[C@H](C(=O)Nc1ccccc1CC[C@@H]1CN[C@H](C)[C@@H](CSc2nc(N)c3cn[nH]c3n2)O1)C(c1ccccc1)c1ccccc1 was tested on wildtype HIV-1 protease (Human immunodeficiency virus type 1 group M subtype B), and its IC50 came to 100

// IC50 (wildtype HIV-1 protease (Human immunodeficiency virus type 1 group M subtype B)) for COC(=O)N[C@H](C(=O)Nc1ccccc1CC[C@@H]1CN[C@H](C)[C@@H](CSc2ncnc3c2ncn3[C@@H]2O[C@H](CO)[C@@H](O)[C@H]2O)O1)C(c1ccccc1)c1ccccc1 = 51.9

Noted IC50 for COC(=O)N[C@H](C(=O)Nc1ccccc1CC[C@@H]1CN[C@H](C)[C@@H](CSc2ccncc2)O1)C(c1ccccc1)c1ccccc1 , tested on wildtype HIV-1 protease (Human immunodeficiency virus type 1 group M subtype B): 41.4

Measured IC50 for this entry COC(=O)N[C@H](C(=O)Nc1ccccc1CC[C@@H]1CN[C@H](CO)[C@@H](CSc2nnc(-c3ccncc3)o2)O1)C(c1ccccc1)c1ccccc1 on wildtype HIV-1 protease (Human immunodeficiency virus type 1 group M subtype B): 0.171

GET /values?item= C[C@@H]1O[C@H](CCc2c(F)cccc2NC(=O)[C@@H](N)C(c2ccc(F)cc2)c2ccc(F)cc2)CN[C@@H]1CO &system= wildtype HIV-1 protease (Human immunodeficiency virus type 1 group M subtype B) returns IC50: 400

Tested on wildtype HIV-1 protease (Human immunodeficiency virus type 1 group M subtype B), the item C[C@H]1O[C@H](CCc2c(F)cccc2NC(=O)[C@@H](N)C(c2ccc(F)cc2)c2ccc(F)cc2)CN[C@@H]1COC(=O)NCc1ccc(F)cc1 [Example 48] showed IC50 equal to 5.8

The compound COC(=O)N[C@H](C(=O)Nc1ccccc1CC[C@@H]1CN[C@H](C)[C@@H](CSc2nc3ccc(OC(F)F)cc3[nH]2)O1)C(c1ccccc1)c1ccccc1 , tested on wildtype HIV-1 protease (Human immunodeficiency virus type 1 group M subtype B), showed IC50 of 25.1

Observed IC50, wildtype HIV-1 protease (Human immunodeficiency virus type 1 group M subtype B), COC(=O)N[C@H](C(=O)Nc1ccccc1CC[C@@H]1CN[C@H](C)[C@@H](CSc2ncnc3[nH]ncc23)O1)C(c1ccccc1)c1ccccc1 : 9.43

Response field IC50 (wildtype HIV-1 protease (Human immunodeficiency virus type 1 group M subtype B)) for item COC(=O)N[C@H](C(=O)Nc1ccccc1CC[C@@H]1CN[C@H](C)[C@@H](CSc2ncc[nH]2)O1)C(c1ccccc1)c1ccccc1 : 235

Measured IC50 (wildtype HIV-1 protease (Human immunodeficiency virus type 1 group M subtype B)), entry C[C@H]1O[C@H](CCc2c(F)cncc2NC(=O)[C@@H](N)C(c2ccc(F)cc2)c2ccc(F)cc2)CN[C@@H]1COC(=O)NCC(F)(F)F [Example 57] : 59

The measured IC50 that COC(=O)N[C@H](C(=O)Nc1ccccc1CC[C@@H]1CN[C@H](COC(C)=O)[C@@H](CSc2nnc(-c3ccncc3)o2)O1)C(c1ccccc1)c1ccccc1 showed for wildtype HIV-1 protease (Human immunodeficiency virus type 1 group M subtype B) is 0.0334

Bench note, wildtype HIV-1 protease (Human immunodeficiency virus type 1 group M subtype B): entry COC(=O)N[C@H](C(=O)Nc1ccccc1CC[C@@H]1CN[C@H](C)[C@@H](CSc2cccc3ncccc23)O1)C(c1ccccc1)c1ccccc1 , its IC50 = 10.6

Hey, wildtype HIV-1 protease (Human immunodeficiency virus type 1 group M subtype B) data for COC(=O)N[C@H](C(=O)Nc1ccccc1CC[C@@H]1CN[C@H](COCc2ccccc2)[C@@H](CSc2nnc(-c3ccncc3)o2)O1)C(c1ccccc1)c1ccccc1 : IC50 came out at 0.472

Note to self: IC50 of COC(=O)N[C@H](C(=O)Nc1ccccc1CC[C@@H]1CN[C@H](C)[C@@H](CSc2nc(C)cc(C(F)(F)F)n2)O1)C(c1ccccc1)c1ccccc1 with wildtype HIV-1 protease (Human immunodeficiency virus type 1 group M subtype B) was 34.9

The compound COC(=O)N[C@H](C(=O)Nc1ccccc1CC[C@@H]1CN[C@H](COC(=O)NCC(F)(F)F)[C@@H](CSc2nnc(-c3ccncc3)o2)O1)C(c1ccccc1)c1ccccc1 , when measured on wildtype HIV-1 protease (Human immunodeficiency virus type 1 group M subtype B), yielded IC50 of 0.01

* * *

Quick note: these are IC50 numbers for system: wildtype HIV-1 protease (Human immunodeficiency virus type 1 group M subtype B)
Give just the numeric value; nM need not be written.

COC(=O)N[C@H](C(=O)Nc1ccccc1CC[C@@H]1CN[C@H](C)[C@@H](CSc2nnc(CN3CCCC3)o2)O1)C(c1ccccc1)c1ccccc1	124
COC(=O)N[C@H](C(=O)Nc1ccccc1CC[C@@H]1CN[C@H](C)[C@@H](CSc2nnnn2CCN(C)C)O1)C(c1ccccc1)c1ccccc1	214
C[C@H]1O[C@H](COc2c(F)cncc2NC(=O)[C@@H](N)C(c2ccc(F)cc2)c2ccc(F)cc2)CN[C@@H]1COC(=O)NCC(F)(F)F	77
C[C@@H]1O[C@H](CCc2c(F)cccc2NC(=O)[C@@H](N)C(c2ccc(F)cc2)c2ccc(F)cc2)CN[C@@H]1COC(N)=O	39
O=C(CC(c1ccc(F)cc1)c1ccc(F)cc1)Nc1cccc(F)c1CC[C@@H]1CN[C@H](CO)[C@@H](COC(=O)NCC(F)(F)F)O1	170

IC50 recorded for this molecule, C[C@@H]1O[C@H](CCc2c(F)cccc2NC(=O)[C@@H](N)C(c2ccc(F)cc2)c2ccc(F)cc2)CN[C@@H]1COC(=O)N[C@@H](C)C(F)(F)F , is 3.1
